Value source: patent US12662483B2

Assay: Solubility in aqueous and biorelevant media (HPLC of supernatant)
Details: 0.1N aqueous HCl, simulated gastric fluid, thermodynamic from solid
endpoint: solubility at 24 h (µg/mL)

compound	endpoint	value
Cc1c(-c2cc(O[C@H](CO)c3ccc(F)cn3)c3c(Cl)cnn3c2)nnn1C1CCN(C#N)CC1 [Isomer 2]	solubility at 24 h	12

====

Test: Solubility in aqueous and biorelevant media (HPLC of supernatant)
Settings: phosphate buffer USP, pH 6, aqueous buffer, thermodynamic from solid
endpoint: solubility at 24 h

compound	endpoint	value
Cc1c(-c2cc(O[C@H](CO)c3ccc(F)cn3)c3c(Cl)cnn3c2)nnn1C1CCN(C#N)CC1 [Isomer 2]	solubility at 24 h	6 µg/mL
